targetOrTestSystem: Nicotinamide phosphoribosyltransferase (Homo sapiens, UniProt P43490)
Sequence (P43490 whole entry): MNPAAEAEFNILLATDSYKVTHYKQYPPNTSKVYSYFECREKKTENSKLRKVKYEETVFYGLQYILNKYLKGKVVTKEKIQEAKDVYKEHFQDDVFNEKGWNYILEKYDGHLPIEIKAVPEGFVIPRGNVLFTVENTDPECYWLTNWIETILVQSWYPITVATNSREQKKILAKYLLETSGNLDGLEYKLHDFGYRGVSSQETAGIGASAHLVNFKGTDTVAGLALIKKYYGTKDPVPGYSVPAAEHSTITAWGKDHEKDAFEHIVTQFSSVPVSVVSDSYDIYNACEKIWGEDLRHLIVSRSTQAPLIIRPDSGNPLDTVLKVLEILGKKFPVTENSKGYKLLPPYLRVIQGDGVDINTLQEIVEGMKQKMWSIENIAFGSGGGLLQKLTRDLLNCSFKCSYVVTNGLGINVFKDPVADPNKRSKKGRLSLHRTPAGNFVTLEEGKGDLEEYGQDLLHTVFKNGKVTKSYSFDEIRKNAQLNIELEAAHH
protocolNotes: Inhibition of human NAMPT assessed as decrease in NMN production by fluorescence based analysis
propertyName: IC50 (µM)

> print(dat)
                                  molsmiles  datavalue
1  Cc1ccc(C(=O)N2CCc3cc(NC(=O)NCc4cccnc4)ccc32)cc1      0.032

----------
targetOrTestSystem: hERG (KCNH2) (Homo sapiens, UniProt Q12809)
Sequence (Q12809 whole entry): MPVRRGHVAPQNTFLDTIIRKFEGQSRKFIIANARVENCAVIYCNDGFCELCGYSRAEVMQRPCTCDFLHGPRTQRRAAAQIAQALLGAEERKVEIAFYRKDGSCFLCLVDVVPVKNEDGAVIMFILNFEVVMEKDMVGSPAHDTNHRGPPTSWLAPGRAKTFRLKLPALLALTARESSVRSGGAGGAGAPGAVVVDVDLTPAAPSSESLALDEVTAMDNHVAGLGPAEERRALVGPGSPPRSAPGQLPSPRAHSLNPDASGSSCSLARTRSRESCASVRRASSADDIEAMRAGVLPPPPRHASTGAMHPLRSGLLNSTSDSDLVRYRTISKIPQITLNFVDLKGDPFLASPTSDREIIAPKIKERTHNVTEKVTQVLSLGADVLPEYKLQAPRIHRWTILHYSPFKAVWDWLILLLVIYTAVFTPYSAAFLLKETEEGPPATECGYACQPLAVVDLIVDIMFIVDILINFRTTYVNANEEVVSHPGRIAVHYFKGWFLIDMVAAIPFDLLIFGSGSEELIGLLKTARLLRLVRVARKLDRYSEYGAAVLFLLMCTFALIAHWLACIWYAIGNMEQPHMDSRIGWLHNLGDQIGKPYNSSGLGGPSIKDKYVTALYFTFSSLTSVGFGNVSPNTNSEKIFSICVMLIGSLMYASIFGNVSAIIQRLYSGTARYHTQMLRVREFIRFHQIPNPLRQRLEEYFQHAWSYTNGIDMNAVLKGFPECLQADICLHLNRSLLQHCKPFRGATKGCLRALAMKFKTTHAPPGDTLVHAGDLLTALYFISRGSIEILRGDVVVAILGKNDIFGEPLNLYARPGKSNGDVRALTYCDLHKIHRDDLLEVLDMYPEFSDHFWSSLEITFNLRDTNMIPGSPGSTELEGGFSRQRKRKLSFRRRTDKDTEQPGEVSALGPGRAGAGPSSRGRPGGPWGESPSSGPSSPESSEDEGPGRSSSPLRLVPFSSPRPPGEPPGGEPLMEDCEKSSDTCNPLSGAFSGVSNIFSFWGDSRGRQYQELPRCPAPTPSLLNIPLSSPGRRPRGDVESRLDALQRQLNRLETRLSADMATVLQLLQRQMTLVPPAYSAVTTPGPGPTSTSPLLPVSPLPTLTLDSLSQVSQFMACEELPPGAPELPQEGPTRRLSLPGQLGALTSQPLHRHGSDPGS
protocolNotes: Inhibition of human ERG at 10 uM
Measured inhibition at 10 µM accompanies every entry in the list below.
propertyName: inhibition at 10 µM (%)

> print(dat)
                                  molsmiles         propertyname  readoutunit  datavalue
1  O=C(NCc1ccncc1)Nc1ccc2nc(-c3ccccc3)nn2c1  inhibition at 10 µM            %         51
2  Cn1nccc1-c1nc2ccc(NC(=O)NCc3ccncc3)cn2n1  inhibition at 10 µM            %         14

----------
targetOrTestSystem: hERG (KCNH2) (Homo sapiens)
protocolNotes: Inhibition of human ERG at 30 uM
Overview of recorded inhibition at 30 µM for various molecules
propertyName: inhibition at 30 µM (%)

> print(dat)
                                  molsmiles  datavalue
1  O=C(NCc1ccncc1)Nc1ccc2nc(-c3ccccc3)nn2c1         69
2  Cn1nccc1-c1nc2ccc(NC(=O)NCc3ccncc3)cn2n1         25

----------
protocolNotes: Half life in C57BL/6N mouse at 10 mg/kg, po
assayConditions: in vivo
propertyName: half-life (min)

> print(dat)
                                  molsmiles  datavalue
1  O=C(NCc1ccncc1)Nc1ccc2nc(-c3ccccc3)nn2c1         54

----------
targetOrTestSystem: UniProt P08684
Sequence (P08684 whole entry): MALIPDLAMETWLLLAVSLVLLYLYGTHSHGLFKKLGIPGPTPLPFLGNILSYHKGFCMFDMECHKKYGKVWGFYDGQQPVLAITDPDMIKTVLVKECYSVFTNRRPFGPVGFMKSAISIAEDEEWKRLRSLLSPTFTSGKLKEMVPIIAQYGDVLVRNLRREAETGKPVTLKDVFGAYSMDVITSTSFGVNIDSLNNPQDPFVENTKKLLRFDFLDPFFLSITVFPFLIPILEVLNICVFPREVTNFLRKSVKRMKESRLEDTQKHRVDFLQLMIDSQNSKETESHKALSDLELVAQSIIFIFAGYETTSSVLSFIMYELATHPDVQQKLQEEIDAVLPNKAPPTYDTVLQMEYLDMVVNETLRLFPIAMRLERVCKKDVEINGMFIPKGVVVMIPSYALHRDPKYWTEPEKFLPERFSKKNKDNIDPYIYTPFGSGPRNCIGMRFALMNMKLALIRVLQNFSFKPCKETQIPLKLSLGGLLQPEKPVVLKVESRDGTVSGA
protocolNotes: Inhibition of CYP3A4 (unknown origin) at 10 uM measured after 10 mins
Assay type: ADME
propertyName: inhibition at 10 min, 10 µM (%)

> print(dat)
                                   molsmiles                 propertyname  datavalue
 1  COCCn1nccc1-c1nc2ccc(NC(=O)NCc3ccncc3)cn2n1  inhibition at 10 min, 10 µM         18
 2  O=C(NCc1ccncc1)Nc1ccc2nc(-c3cccc(OC(F)(F)F)c3)nn2c1  inhibition at 10 min, 10 µM          0
 3  Cn1nccc1-c1nc2ccc(NC(=O)NCc3ccncc3)cn2n1  inhibition at 10 min, 10 µM         25
 4  O=C(NCc1ccncc1)Nc1ccc2cn(-c3ccccc3)nc2c1  inhibition at 10 min, 10 µM         75
 5  O=C(NCc1ccncc1)Nc1ccc2nc(-c3ccccc3OC(F)(F)F)nn2c1  inhibition at 10 min, 10 µM         65
 6  CC(C)n1nccc1-c1nc2ccc(NC(=O)NCc3ccncc3)cn2n1  inhibition at 10 min, 10 µM          4
 7  O=C(NCc1ccncc1)Nc1ccc2nc(-c3ccc(OC(F)(F)F)cc3)nn2c1  inhibition at 10 min, 10 µM          0
 8  O=C(NCc1ccncc1)Nc1ccc2cc(-c3ccccc3)nn2c1  inhibition at 10 min, 10 µM         53
 9  O=C(NCc1ccncc1)Nc1ccc2nc(-c3ccccc3)nn2c1  inhibition at 10 min, 10 µM         37
10  Cn1cccc1-c1nc2ccc(NC(=O)NCc3ccncc3)cn2n1  inhibition at 10 min, 10 µM         40
11   O=C(NCc1cnco1)Nc1ccc2nc(-c3ccccc3)nn2c1  inhibition at 10 min, 10 µM          0
12  O=C(NCc1cn[nH]c1)Nc1ccc2nc(-c3ccccc3)nn2c1  inhibition at 10 min, 10 µM          0

----------
protocolNotes: Metabolic stability in mouse microsome fraction assessed as parent compound remaining at 1 uM measured after 30 mins
assayConditions: microsomes
propertyName: remaining at 0.5 h, 1 µM (%)

> print(dat)
                                  molsmiles  readoutunit  datavalue
1  O=C(NCc1ccncc1)Nc1ccc2cn(-c3ccccc3)nc2c1            %         83
2  O=C(NCc1ccncc1)Nc1ccc2nc(-c3ccccc3)nn2c1            %         86

----------
targetOrTestSystem: CYP2C9 (Homo sapiens)
Sequence (P11712 whole entry): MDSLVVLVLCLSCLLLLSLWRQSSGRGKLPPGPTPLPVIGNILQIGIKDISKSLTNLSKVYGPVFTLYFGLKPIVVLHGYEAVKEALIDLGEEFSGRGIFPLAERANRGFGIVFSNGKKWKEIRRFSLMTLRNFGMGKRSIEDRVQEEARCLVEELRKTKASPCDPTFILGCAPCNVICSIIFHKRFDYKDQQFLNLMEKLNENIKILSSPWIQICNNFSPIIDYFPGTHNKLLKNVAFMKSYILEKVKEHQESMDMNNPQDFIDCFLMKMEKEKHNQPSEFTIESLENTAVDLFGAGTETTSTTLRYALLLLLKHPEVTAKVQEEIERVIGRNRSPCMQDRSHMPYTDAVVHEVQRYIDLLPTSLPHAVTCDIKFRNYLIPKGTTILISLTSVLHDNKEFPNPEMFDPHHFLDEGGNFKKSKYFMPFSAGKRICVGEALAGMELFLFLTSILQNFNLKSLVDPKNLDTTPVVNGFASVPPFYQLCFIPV
protocolNotes: Inhibition of CYP2C9 (unknown origin) at 10 uM measured after 10 mins
Assay type: ADME
propertyName: inhibition at 10 min, 10 µM (%)

> print(dat)
                                   molsmiles  readoutunit  datavalue
 1  O=C(NCc1ccncc1)Nc1ccc2nc(-c3ccccc3OC(F)(F)F)nn2c1            %         78
 2  O=C(NCc1ccncc1)Nc1ccc2nc(-c3ccccc3)nn2c1            %         79
 3  O=C(NCc1ccncc1)Nc1ccc2nc(-c3cccc(OC(F)(F)F)c3)nn2c1            %         90
 4   O=C(NCc1cnco1)Nc1ccc2nc(-c3ccccc3)nn2c1            %         59
 5  Cn1nccc1-c1nc2ccc(NC(=O)NCc3ccncc3)cn2n1            %         42
 6  O=C(NCc1ccncc1)Nc1ccc2cc(-c3ccccc3)nn2c1            %         78
 7  COCCn1nccc1-c1nc2ccc(NC(=O)NCc3ccncc3)cn2n1            %         44
 8  O=C(NCc1ccncc1)Nc1ccc2cn(-c3ccccc3)nc2c1            %         74
 9  O=C(NCc1ccncc1)Nc1ccc2nc(-c3ccc(OC(F)(F)F)cc3)nn2c1            %         81
10  Cn1cccc1-c1nc2ccc(NC(=O)NCc3ccncc3)cn2n1            %         75
11  CC(C)n1nccc1-c1nc2ccc(NC(=O)NCc3ccncc3)cn2n1            %         79
12  O=C(NCc1cn[nH]c1)Nc1ccc2nc(-c3ccccc3)nn2c1            %         59

----------
targetOrTestSystem: Nicotinamide phosphoribosyltransferase (Homo sapiens)
protocolNotes: Activation of human NAMPT assessed as increase in NMN production by fluorescence based analysis
propertyName: EC50 (nM)

> print(dat)
                                  molsmiles  resultqualifier  datavalue
1  Cn1cccc1-c1nc2ccc(NC(=O)NCc3ccncc3)cn2n1                =        120
2  O=C(NCc1ccncc1)Nc1ccc2nc(-c3ccc(OC(F)(F)F)cc3)nn2c1                >     100000
3  Cc1ccc(C(=O)N2CCc3cc(NC(=O)NCc4ccncc4)ccc32)cc1                =        480
4  O=C(NCc1ccncc1)Nc1ccc2nc(-c3ccccc3)nn2c1                =         83
5      CC(C)c1nc2ccc(NC(=O)NCc3ccncc3)cn2n1                =       5800

----------
protocolNotes: Metabolic stability in human microsome assessed as parent compound remaining at 1 uM measured after 30 mins
assayConditions: microsomes
propertyName: remaining at 0.5 h, 1 µM (%)

> print(dat)
                                  molsmiles              propertyname  datavalue
1  O=C(NCc1ccncc1)Nc1ccc2nc(-c3ccccc3)nn2c1  remaining at 0.5 h, 1 µM         95
2  O=C(NCc1ccncc1)Nc1ccc2cn(-c3ccccc3)nc2c1  remaining at 0.5 h, 1 µM         87

----------
Papp listing for selected molecules.
protocolNotes: Permeability of the compound at pH 7.4 by PAMPA
propertyName: Papp (×10⁻⁶ cm/s)

> print(dat)
                                  molsmiles  propertyname  resultqualifier  datavalue
1  O=C(NCc1ccncc1)Nc1ccc2cn(-c3ccccc3)nc2c1          Papp                >          5
2  O=C(NCc1ccncc1)Nc1ccc2nc(-c3ccccc3)nn2c1          Papp                =       2.76

----------
// inhibition at 10 min, 10 µM lookup, one value per entry
targetOrTestSystem: CYP1A2 (Homo sapiens)
Sequence (P05177 whole entry): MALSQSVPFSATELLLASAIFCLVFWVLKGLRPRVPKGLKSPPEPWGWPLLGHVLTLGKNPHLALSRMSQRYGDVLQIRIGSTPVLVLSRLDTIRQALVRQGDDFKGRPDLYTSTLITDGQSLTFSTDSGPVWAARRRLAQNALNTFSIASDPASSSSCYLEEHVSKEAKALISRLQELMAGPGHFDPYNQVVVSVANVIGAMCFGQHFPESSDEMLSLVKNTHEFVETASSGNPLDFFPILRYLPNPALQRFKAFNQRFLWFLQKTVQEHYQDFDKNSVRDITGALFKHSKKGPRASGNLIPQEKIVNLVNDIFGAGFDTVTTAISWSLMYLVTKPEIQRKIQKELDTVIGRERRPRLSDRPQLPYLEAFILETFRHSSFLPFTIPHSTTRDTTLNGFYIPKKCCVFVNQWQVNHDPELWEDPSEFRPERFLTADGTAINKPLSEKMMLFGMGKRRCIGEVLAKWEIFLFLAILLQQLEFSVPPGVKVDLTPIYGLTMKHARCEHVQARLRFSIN
protocolNotes: Inhibition of CYP1A2 (unknown origin) at 10 uM measured after 10 mins
Assay type: ADME
propertyName: inhibition at 10 min, 10 µM (%)

> print(dat)
                                   molsmiles                 propertyname  datavalue
 1  O=C(NCc1ccncc1)Nc1ccc2cn(-c3ccccc3)nc2c1  inhibition at 10 min, 10 µM         88
 2  COCCn1nccc1-c1nc2ccc(NC(=O)NCc3ccncc3)cn2n1  inhibition at 10 min, 10 µM          6
 3   O=C(NCc1cnco1)Nc1ccc2nc(-c3ccccc3)nn2c1  inhibition at 10 min, 10 µM         69
 4  O=C(NCc1ccncc1)Nc1ccc2nc(-c3ccccc3)nn2c1  inhibition at 10 min, 10 µM         63
 5  Cn1nccc1-c1nc2ccc(NC(=O)NCc3ccncc3)cn2n1  inhibition at 10 min, 10 µM         15
 6  O=C(NCc1ccncc1)Nc1ccc2cc(-c3ccccc3)nn2c1  inhibition at 10 min, 10 µM         81
 7  O=C(NCc1ccncc1)Nc1ccc2nc(-c3cccc(OC(F)(F)F)c3)nn2c1  inhibition at 10 min, 10 µM         28
 8  O=C(NCc1cn[nH]c1)Nc1ccc2nc(-c3ccccc3)nn2c1  inhibition at 10 min, 10 µM         86
 9  O=C(NCc1ccncc1)Nc1ccc2nc(-c3ccc(OC(F)(F)F)cc3)nn2c1  inhibition at 10 min, 10 µM          8
10  Cn1cccc1-c1nc2ccc(NC(=O)NCc3ccncc3)cn2n1  inhibition at 10 min, 10 µM         51
11  CC(C)n1nccc1-c1nc2ccc(NC(=O)NCc3ccncc3)cn2n1  inhibition at 10 min, 10 µM         12
12  O=C(NCc1ccncc1)Nc1ccc2nc(-c3ccccc3OC(F)(F)F)nn2c1  inhibition at 10 min, 10 µM         43

Cited source for all entries: ChEMBL document CHEMBL4819093
